# Tested on: IL-6
# assay protocol: poly(I:C)-induced IL-6 gene expression in hSAECs (Q-RT-PCR)
# Format: cell-based, human
# condition notes: inhibitory effect on induction of gene
IL-6 (%) values for the molecules below.
parameter measured: IL-6 (%)

INSERT INTO assay_data (molecule, readout_units, number) VALUES
  ('O=C(Nc1ccc(C(F)(F)F)cc1)Nc1ccc(S(=O)(=O)N2CCC[C@H]2CN2CCC(O)CC2)cc1 [ZL0591]', '%', 0.28),
  ('COc1cc(OC)c2c(=O)cc(-c3cc(C)c(OC[C@H](O)CN4CCN(C)CC4)c(C)c3)oc2c1 [ZL0516]', '%', 2.71),
  ('Cc1cc(/N=N/c2ccc3c(c2)CCC(=O)N3)c(N)cc1O [ZL0420]', '%', 0.54);
